Tested on: SD rats
test-details: Effect on rat hemodynamics (left ventricular pressure, heart rate)
experimental-conditions: 0.25 mg/kg; anesthetized SD rats; 3 min after administration
# key: entry, value: LVEDP
Note: the reply should be a number with no unit written.

Examples with answers:
COc1ccc(CCN(C)CCCC(C#N)(c2ccc(OC)c(OC)c2)C(C)C)cc1OC (stereo not drawn)	25.39
COc1cccc(C[N+]2(CCCC(=O)c3ccc(F)cc3)CCC(O)(c3ccc(Cl)cc3)CC2)c1 (stereo not drawn)	22.12

Request: So what does the record say about LVEDP for COc1ccccc1C[N+]1(CCCC(=O)c2ccc(F)cc2)CCC(O)(c2ccc(Cl)cc2)CC1 (stereo not drawn) ?
Response: 23.86

Request: So what does the record say about LVEDP for COc1ccc(C[N+]2(CCCC(=O)c3ccc(F)cc3)CCC(O)(c3ccc(Cl)cc3)CC2)cc1 (stereo not drawn) ?
Response: 20.34

Request: So what does the record say about LVEDP for COc1ccc([C@@H]2Sc3ccccc3N(CCN(C)C)C(=O)[C@@H]2OC(C)=O)cc1 ?
Response: 30.21

Request: So what does the record say about LVEDP for COC(=O)C1=C(C)NC(C)=C(C(=O)OC)C1c1ccccc1[N+](=O)[O-] ?
Response: 29.33

---

# key: entry, value: LVSP
System: SD rats
test-details: Effect on rat hemodynamics (left ventricular pressure, heart rate)
experimental-conditions: 0.25 mg/kg; anesthetized SD rats; 3 min after administration
Note: the reply should be a number with no unit written.

Examples with answers:
COc1ccc(CCN(C)CCCC(C#N)(c2ccc(OC)c(OC)c2)C(C)C)cc1OC (stereo not drawn)	132.24
COc1ccc(C[N+]2(CCCC(=O)c3ccc(F)cc3)CCC(O)(c3ccc(Cl)cc3)CC2)cc1 (stereo not drawn)	145.32
COc1cccc(C[N+]2(CCCC(=O)c3ccc(F)cc3)CCC(O)(c3ccc(Cl)cc3)CC2)c1 (stereo not drawn)	145.98
COC(=O)C1=C(C)NC(C)=C(C(=O)OC)C1c1ccccc1[N+](=O)[O-]	137.21
COc1ccccc1C[N+]1(CCCC(=O)c2ccc(F)cc2)CCC(O)(c2ccc(Cl)cc2)CC1 (stereo not drawn)	142.94

Turning to the following molecule.
Request: So what does the record say about LVSP for COc1ccc([C@@H]2Sc3ccccc3N(CCN(C)C)C(=O)[C@@H]2OC(C)=O)cc1 ?
Response: 138.54

---

# key: entry, value: HR
Tested on: SD rats
test-details: Effect on rat hemodynamics (left ventricular pressure, heart rate)
experimental-conditions: 1 mg/kg; anesthetized SD rats; 3 min after administration
Note: the reply should be a number with no unit written.

COc1ccc(CCN(C)CCCC(C#N)(c2ccc(OC)c(OC)c2)C(C)C)cc1OC (stereo not drawn) [Ver, verapamil]	298
COc1ccccc1C[N+]1(CCCC(=O)c2ccc(F)cc2)CCC(O)(c2ccc(Cl)cc2)CC1 (stereo not drawn) [Compound X3]	368
COc1ccc(C[N+]2(CCCC(=O)c3ccc(F)cc3)CCC(O)(c3ccc(Cl)cc3)CC2)cc1 (stereo not drawn) [Compound X1]	342
COc1cccc(C[N+]2(CCCC(=O)c3ccc(F)cc3)CCC(O)(c3ccc(Cl)cc3)CC2)c1 (stereo not drawn) [Compound X2]	356
COC(=O)C1=C(C)NC(C)=C(C(=O)OC)C1c1ccccc1[N+](=O)[O-] [Nif, nifedipine]	311

Turning to the following molecule.
Request: State its HR on SD rats: COc1ccc([C@@H]2Sc3ccccc3N(CCN(C)C)C(=O)[C@@H]2OC(C)=O)cc1 [Dil, diltiazem]
Response: 304
